Target Of Assay: furin, P09958;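 note: purified furin at 1:10 enzyme:substrate in 50 mM HEPES pH 7.5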
Sequence (P09958 whole entry): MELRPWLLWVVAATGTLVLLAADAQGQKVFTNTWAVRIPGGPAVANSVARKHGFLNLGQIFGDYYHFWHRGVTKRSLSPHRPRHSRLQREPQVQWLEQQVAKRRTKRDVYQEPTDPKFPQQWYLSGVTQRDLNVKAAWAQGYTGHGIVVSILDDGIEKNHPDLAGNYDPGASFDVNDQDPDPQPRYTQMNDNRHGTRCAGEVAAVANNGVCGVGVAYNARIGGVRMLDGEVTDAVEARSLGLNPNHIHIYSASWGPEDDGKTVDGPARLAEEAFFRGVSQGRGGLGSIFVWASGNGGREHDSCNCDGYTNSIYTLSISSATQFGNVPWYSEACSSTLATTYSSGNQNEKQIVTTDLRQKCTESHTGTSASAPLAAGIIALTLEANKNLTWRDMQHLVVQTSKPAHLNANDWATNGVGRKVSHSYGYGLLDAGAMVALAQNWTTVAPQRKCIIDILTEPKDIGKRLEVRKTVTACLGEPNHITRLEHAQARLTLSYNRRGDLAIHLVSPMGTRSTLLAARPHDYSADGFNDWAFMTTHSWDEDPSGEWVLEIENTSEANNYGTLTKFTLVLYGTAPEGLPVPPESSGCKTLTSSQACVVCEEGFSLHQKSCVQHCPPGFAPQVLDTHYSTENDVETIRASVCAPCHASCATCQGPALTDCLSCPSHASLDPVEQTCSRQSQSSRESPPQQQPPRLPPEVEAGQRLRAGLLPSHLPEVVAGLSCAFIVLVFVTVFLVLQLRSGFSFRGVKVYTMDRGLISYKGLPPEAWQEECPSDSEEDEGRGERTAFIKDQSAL
Assay Overview: furin cleavage Z-score vs untreated control; higher = more cleavage, active = 3.5 or more, inactive = 1 or less, 8 variable residues between constant flanks
Measurement Conditions: 15 min
This is one part of the list. How many sequences the whole screen found active is unknown.
Could you please classify the records by furin cleavage Z-score using these ranges: range 1 (below 0.1), range 2 (0.1 to below 3), range 3 (3 or more)

Query string: Class? Entry: CARFKRLADMAGNASASA [FS-2489]
Result string: range 3

Query string: Assign a bin to CADFEVVTSTAGNASASA [HC2287]
Result string: range 1

Query string: Tag the class for CARRVRIVSRAGNASASA [FS-1923]
Result string: range 2

Query string: GET /class?item= CARAARSRGAAGNASASA [FS-2324]
Result string: range 1

Query string: Would you mind sorting CARFKRDPNQAGNASASA [FS-1891] into the appropriate category?
Result string: range 3

Query string: Please let me know in which category the item CARSNRFSWMAGNASASA [FS-3088] belongs.
Result string: range 2

Query string: Could you tell me which band CASRSRSPRPAGNASASA [FS-1283] belongs to?
Result string: range 2

Query string: Assign a bin to CARCPRQVSTAGNASASA [FS-3216]
Result string: range 3

Query string: Bin? CARAQRSPQQAGNASASA [FS-2129]
Result string: range 2
